Tested on: UACC-257
Assay: NCI tumour cell line growth inhibition, 48 h
Active and inactive are the calls of the source. Rule as the data show it: active = GI50 up to about 1.1 µM and inactive = higher.
The categories you may choose from are True for active, False for inactive

Task: // return assay outcome for CC1(C)C2CCC3(OCCO3)C1C(O)C2 (configuration not stated)
Output: False

Task: // return assay outcome for CCOC(=O)C1=C(C)NC(=O)NC1c1ccc(N(CCCl)CCCl)cc1Cl (configuration not stated)
Output: False

Task: // return assay outcome for Cc1ccsc1C(=O)C(CC(=O)c1cccs1)c1ccsc1 (configuration not stated)
Output: False

Task: // return assay outcome for `CCOc1ccc(/N=C/c2c3ccccc3nc3ccccc23)cc1`
Output: False

Task: // return assay outcome for `Clc1nc(-c2ccccc2)nc(Cl)c1Cl`
Output: False

Task: // return assay outcome for COC(=O)CCC(C)C1CCC2C3C(C[C@H](OC(C)=O)[C@]12C)[C@@]1(C)CCC2(C[C@H]1C[C@H]3OC(C)=O)OOC1(CC[C@]3(C)C4C[C@H](OC(C)=O)[C@]5(C)C(C(C)CCC(=O)OC)CCC5C4[C@H](OC(C)=O)C[C@@H]3C1)OO2 (some centres not stated)
Output: False

Task: // return assay outcome for CCCCCCCSCC1C(=O)C23C(O)C1CCC2C12COC3(O)C(O)C1C(C)(C)CCC2O (configuration not stated)
Output: False

Task: // return assay outcome for CO[C@]12CC(=O)C3(C(C[C@H]4CC5CC[C@H]6C[C@@H](OC(C)=O)CC[C@]6(OC(C)=O)C5C[C@@]43C)C1)C1C[C@H]3[C@@H]4CC[C@H]5C[C@@H](OC(C)=O)CC[C@]5(OC(C)=O)[C@H]4CC[C@]3(C)C12 (some centres not stated)
Output: False

Task: // return assay outcome for CSC1NC(c2ccccc2)=C(C#N)C(=O)N1C1OCC(OC(C)=O)C(OC(C)=O)C1OC(C)=O (configuration not stated)
Output: False

Task: // return assay outcome for `Cn1c2ccccc2n2c3ncccc3c(=O)c(C#N)c12`
Output: False

Task: // return assay outcome for `CC(C)(Oc1ccc(C(=O)c2ccc(Cl)cc2)cc1Cl)C(=O)N1CCN(CCO)CC1`
Output: False

Task: // return assay outcome for `c1ccc(CSP234N5CCN2CCN3CCN4CC5)c(CSP234N5CCN2CCN3CCN4CC5)c1`
Output: False

Task: // return assay outcome for `O=S(=O)(O)c1ccc2c(/N=N/c3c(O)ccc4ccccc34)cccc2c1`
Output: False

Task: // return assay outcome for `O=C1Sc2cc3ccccc3cc2C(=O)Sc2ccc(Br)cc21`
Output: False

Task: // return assay outcome for `COc1ccc(CCc2cc(OC)cc(OC)c2)cc1`
Output: False

Task: // return assay outcome for `CC[C@@H]1CC[C@@H]2[C@H](CC[C@]3(C)[C@@H](O)CC[C@@H]23)[C@H]1C(=O)O`
Output: False

Task: // return assay outcome for CN(C)CC1CCC/C(=C\c2ccc(OC(=O)/C=C/c3ccccc3)cc2)C1=O (configuration not stated)
Output: False

Task: // return assay outcome for CC(c1ccccc1)N1O[C@]12CC[C@@]1(C)C(CCCC13OCCO3)C2 (some centres not stated)
Output: False

Task: // return assay outcome for CC12CC(=O)Nc3ccccc3N1C(c1ccccc1)=NO2 (configuration not stated)
Output: False

Task: // return assay outcome for `O=C(O)c1nc2nc(Cl)c(Cl)nc2[nH]1`
Output: False

Task: // return assay outcome for `O=C(O)CCCSC(=O)Nc1ccc(/N=N/c2ccccc2)cc1`
Output: False

Task: // return assay outcome for CC(=O)N(C(C)=O)C1=C2c3ccccc3N(S(=O)(=O)c3ccccc3)C2n2c(=O)n(-c3ccccc3)c(=O)n2C1 (configuration not stated)
Output: False

Task: // return assay outcome for `NCS(=O)(=O)O`
Output: False

Task: // return assay outcome for `CSC(=S)NN=C1CCCCC1`
Output: False

Task: // return assay outcome for C/C(=N/NC(=O)C(N)=O)C(CC(C(=O)Nc1ccccc1C)/C(C)=N\NC(=O)C(N)=O)C(=O)Nc1ccccc1C (configuration not stated)
Output: False

Task: // return assay outcome for `COc1cccc(NC(=O)c2c(N)n[nH]c2SC)c1`
Output: False

Task: // return assay outcome for COC(=O)c1ccc(C)cc1CC1Cc2cccc(C)c2C1=O (configuration not stated)
Output: False

Task: // return assay outcome for `c1cncc(CNCc2cccnc2)c1`
Output: False

Task: // return assay outcome for COc1ccc(/C=C2\CN(C)CC3=C2OC(N)=C(C#N)C3c2ccc(OC)cc2)cc1 (configuration not stated)
Output: False

Task: // return assay outcome for `Nc1cc2c3c(c1)Oc1cc(N)cc4c1C3c1c(cc(N)cc1O4)O2`
Output: False

Task: // return assay outcome for `CC1=CC(C)(C)Nc2ccc(CSc3ccccc3)cc21`
Output: False

Task: // return assay outcome for C=C(C)[C@H]1Cc2c(ccc3c2O[C@@H]2COc4cc(OC)c(OC)cc4[C@@H]2C3=O)O1 [ROTENONE]
Output: True

* * *

System: UACC-62
Experiment: NCI tumour cell line growth inhibition, 48 h
Activity calls are given as the source filed them. No stated cut-off is given here; in the data, active = GI50 up to about 1.1 µM and inactive = higher.
READOUT TYPE: GI50

Task: Recall the reported GI50 of `Cc1c(C)c2cc3c(=O)ccoc3c(C)c2oc1=O` on UACC-62 and write it down.
Output: 21.9 µM (inactive)

Task: Recall the reported GI50 of CCOC(=O)NC(Nc1ccc(S(=O)(=O)Nc2ncccn2)cc1)(C(=O)OCC)C(F)(F)F (configuration not stated) on UACC-62 and write it down.
Output: > 100 µM (inactive)

Task: Recall the reported GI50 of Cc1ccc(NC(c2ccccc2)P(=O)(c2ccccc2)c2ccccc2)cc1 (configuration not stated) on UACC-62 and write it down.
Output: > 100 µM (inactive)

Task: Recall the reported GI50 of c1n[nH]cc1C12C3C4C5C3C1C5C42 (configuration not stated) on UACC-62 and write it down.
Output: > 100 µM (inactive)

Task: Recall the reported GI50 of `O=C(O)CCCSC(=O)Nc1ccc(/N=N/c2ccccc2)cc1` on UACC-62 and write it down.
Output: > 100 µM (inactive)

Task: Recall the reported GI50 of Cc1ccc2c(c1)C(=O)C1(Cc3ccccc3C1=O)C2 (configuration not stated) on UACC-62 and write it down.
Output: 28.9 µM (inactive)

Task: Recall the reported GI50 of COc1ccc(NC(=O)C2=C(SC)C(C#N)C(=O)N=C2N)cc1 (configuration not stated) on UACC-62 and write it down.
Output: > 100 µM (inactive)

Task: Recall the reported GI50 of `CCOC(=O)c1nc2cc(C(F)(F)F)ccc2nc1Oc1ccc(F)cc1` on UACC-62 and write it down.
Output: > 100 µM (inactive)

Task: Recall the reported GI50 of `CC(=O)n1cc(OP(=O)(Oc2ccccc2)Oc2ccccc2)c2ccccc21` on UACC-62 and write it down.
Output: 16.9 µM (inactive)

Task: Recall the reported GI50 of O=C(c1ccc([N+](=O)[O-])cc1)C(Br)C(Br)c1ccnc2ccccc12 (configuration not stated) on UACC-62 and write it down.
Output: 9.4 µM (inactive)

Task: Recall the reported GI50 of `O=C(Nc1ccc(Br)c2ccccc12)c1ccc2ccccc2c1O` on UACC-62 and write it down.
Output: 1.82 µM (inactive)

Task: Recall the reported GI50 of `C=C(C)[C@H]1Cc2c(ccc3c2O[C@@H]2COc4cc(OC)c(OC)cc4[C@@H]2C3=O)O1` on UACC-62 and write it down.
Output: 0.0597 µM (active)

Task: Recall the reported GI50 of `COc1cc(C=C(c2ccc(N(C)C)cc2)c2ccc(N(C)C)cc2)c2ccccc2c1OC` on UACC-62 and write it down.
Output: 27.4 µM (inactive)

Task: Recall the reported GI50 of O=C1c2ccccc2C(O)(O)C1(O)C1(O)C(=O)c2ccccc2C1(O)O (configuration not stated) on UACC-62 and write it down.
Output: 86.9 µM (inactive)

Task: Recall the reported GI50 of COc1ccc(C2=Nc3c(nc(OC)[nH]c3=O)NC(c3ccccc3)C2)cc1 (configuration not stated) on UACC-62 and write it down.
Output: 42.8 µM (inactive)

Task: Recall the reported GI50 of `O=C(O)c1nc2nc(Cl)c(Cl)nc2[nH]1` on UACC-62 and write it down.
Output: > 100 µM (inactive)

Task: Recall the reported GI50 of O=c1c2ccccc2nc2n1NC(c1c(Cl)cccc1Cl)N2c1cccc(Cl)c1 (configuration not stated) on UACC-62 and write it down.
Output: 5.86 µM (inactive)

* * *

Tested on: SF-295
Assay: NCI tumour cell line growth inhibition, 48 h
Activity calls are given as the source filed them. Cut-off read from the data, not from the text of the source: active = GI50 up to about 1.1 µM and inactive = higher.
READOUT TYPE: GI50

Task: Recall the reported GI50 of `CN(C)/C=C/c1ccncc1` on SF-295 and write it down.
Output: > 100 µM (inactive)

Task: Recall the reported GI50 of CCCCCCCCCCCCCCCC(=O)ON1C(=S)NC(C)(c2ccccc2)C1=S (stereo not drawn) on SF-295 and write it down.
Output: 2.11 µM (inactive)

Task: Recall the reported GI50 of `CCOc1ccc(NC(=O)CCc2nnc(SC)o2)cc1` on SF-295 and write it down.
Output: > 100 µM (inactive)
